Data provenance: patent US9394284B2

// reported Kb for each item listed
Molecular target: human prostanoid TP receptor (Homo sapiens)
Construct: expressed in transfected cells
Sequence (P21731 whole entry): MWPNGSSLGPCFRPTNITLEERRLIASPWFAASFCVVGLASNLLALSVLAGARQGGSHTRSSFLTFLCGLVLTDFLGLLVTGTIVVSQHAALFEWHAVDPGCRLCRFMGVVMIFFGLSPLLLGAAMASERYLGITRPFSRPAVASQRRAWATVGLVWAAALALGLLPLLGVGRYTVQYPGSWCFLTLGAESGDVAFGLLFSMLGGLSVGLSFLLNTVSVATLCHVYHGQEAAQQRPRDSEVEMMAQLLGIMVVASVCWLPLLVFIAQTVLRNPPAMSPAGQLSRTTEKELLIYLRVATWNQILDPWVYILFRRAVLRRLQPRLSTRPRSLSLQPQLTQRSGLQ
Assay: FLIPR Ca2+ signaling antagonist assay, TP receptor stable cell line
Format: cell-based
Conditions: HEK-293 EBNA stable cell line; standard agonist U-46619; NA = inactive (no antagonism or Kb 10,000 nM); PAg, Ag not defined
readout.kind: Kb (nM)

molecule=Cc1cc(CCC(=O)O)nn1Cc1cc(Br)ccc1OCC1(C(F)(F)F)CCC1 relation_qualifier== quantitative_readout=10
molecule="Cc1cc(CC(C)C(=O)O)nn1Cc1cc(Cl)ccc1OCC1CCCC1 (racemic)" relation_qualifier== quantitative_readout=120
molecule=Cc1cc(CCC(=O)NS(=O)(=O)C(F)(F)F)nn1Cc1cc(Cl)ccc1OCC1CCCC1 relation_qualifier== quantitative_readout=2
molecule=CCc1ccc(OCC(CC)CC)c(Cn2nc(CCC(=O)O)cc2C)c1 relation_qualifier== quantitative_readout=8
molecule=Cc1cc(CCC(=O)O)nn1Cc1cc(Cl)ccc1OCCCC(C)C relation_qualifier== quantitative_readout=40
molecule=Cc1cc(CCCCC(=O)O)nn1Cc1cc(Cl)ccc1OCC1CCCC1 relation_qualifier== quantitative_readout=30
molecule=CCC(CC)COc1ccc(Br)cc1Cn1nc(CCC(=O)NS(=O)(=O)C(F)(F)F)cc1C relation_qualifier=< quantitative_readout=1
molecule=Cc1cc(CCC(=O)O)nn1Cc1cc(OC(F)(F)F)ccc1OCC1CCCC1 relation_qualifier== quantitative_readout=20
molecule=CCCc1cc(CCC(=O)O)nn1Cc1cc(Br)ccc1OCC(CC)CC relation_qualifier== quantitative_readout=70
molecule=Cc1cc(CCC(=O)O)nn1Cc1cc(Br)ccc1OCC1(C(F)(F)F)CCCC1 relation_qualifier== quantitative_readout=160
molecule=Cc1cc(CCC(=O)NS(=O)(=O)C(F)(F)F)nn1Cc1cc(Br)ccc1OCC(C)C relation_qualifier== quantitative_readout=1
molecule=Cc1cc(CCC(=O)O)nn1Cc1cc(Br)ccc1OCC(C)C relation_qualifier== quantitative_readout=14
molecule=CCCCCCCOc1ccc(Br)cc1Cn1nc(CCC(=O)O)cc1C relation_qualifier== quantitative_readout=500
molecule="CCCC(C)COc1ccc(Br)cc1Cn1nc(CCC(=O)O)cc1C (stereo not shown)" relation_qualifier== quantitative_readout=1
molecule=Cc1cc(CCC(=O)NS(=O)(=O)C(F)(F)F)nn1Cc1cc(Cl)ccc1OCC(C)C relation_qualifier== quantitative_readout=5
molecule=Cc1cc(CCC(=O)NS(=O)(=O)c2ccccc2)nn1Cc1cc(Cl)ccc1OCc1ccc(Cl)cc1 relation_qualifier== quantitative_readout=30
molecule=Cc1cc(CC(C)(C)C(=O)O)nn1Cc1cc(Cl)ccc1OCC1CCCC1 relation_qualifier== quantitative_readout=40
molecule="CCC(C)COc1ccc(Br)cc1Cn1nc(CCC(=O)O)cc1C (stereo not shown)" relation_qualifier== quantitative_readout=2
molecule=C/C=C(\C)COc1ccc(Br)cc1Cn1nc(CCC(=O)O)cc1C relation_qualifier== quantitative_readout=2
molecule=Cc1cc(CCC(=O)O)nn1Cc1cc(Br)ccc1OCC1CCC1 relation_qualifier== quantitative_readout=30
molecule=CCC(CC)COc1ccc(C(C)(C)C)cc1Cn1nc(CCC(=O)O)cc1C relation_qualifier== quantitative_readout=24
molecule=CCC(CC)Oc1ccc(Cl)cc1Cn1nc(CCC(=O)O)cc1C relation_qualifier== quantitative_readout=35
molecule=Cc1cc(CCC(=O)NS(=O)(=O)C(F)(F)F)nn1Cc1cc(Cl)ccc1CCC1CCCC1 relation_qualifier== quantitative_readout=12
molecule=Cc1cc(CCC(=O)NS(=O)(=O)c2ccccc2)nn1Cc1cc(Cl)ccc1OCc1ccc(Cl)cc1Cl relation_qualifier== quantitative_readout=540
molecule=CCC(CC)COc1ccc(C(=O)O)cc1Cn1nc(CCC(=O)O)cc1C relation_qualifier== quantitative_readout=3700
molecule="Cc1cc(CCC(=O)O)nn1Cc1cc(Cl)ccc1OCC1CCCO1 (stereo not shown)" relation_qualifier== quantitative_readout=1000
molecule=Cc1cc(CCC(=O)NS(=O)(=O)CC(F)(F)F)nn1Cc1cc(Cl)ccc1OCc1ccc(Cl)cc1 relation_qualifier=< quantitative_readout=1
molecule="CCC(C)CCOc1ccc(Cl)cc1Cn1nc(CCC(=O)O)cc1C (stereo not shown)" relation_qualifier=< quantitative_readout=1
